- study target: 3-hydroxy-3-methyl-glutaryl-coenzyme A (HMG-CoA) reductase (Rattus norvegicus, UniProt P51639)
- Construct: the livers were removed from the animals and placed on ice; from tissue; host or cells: liver of male Rico rats fed colestyramine; 100,000 g (microsomal) pellet, frozen at -78° C
- Sequence (P51639 whole entry): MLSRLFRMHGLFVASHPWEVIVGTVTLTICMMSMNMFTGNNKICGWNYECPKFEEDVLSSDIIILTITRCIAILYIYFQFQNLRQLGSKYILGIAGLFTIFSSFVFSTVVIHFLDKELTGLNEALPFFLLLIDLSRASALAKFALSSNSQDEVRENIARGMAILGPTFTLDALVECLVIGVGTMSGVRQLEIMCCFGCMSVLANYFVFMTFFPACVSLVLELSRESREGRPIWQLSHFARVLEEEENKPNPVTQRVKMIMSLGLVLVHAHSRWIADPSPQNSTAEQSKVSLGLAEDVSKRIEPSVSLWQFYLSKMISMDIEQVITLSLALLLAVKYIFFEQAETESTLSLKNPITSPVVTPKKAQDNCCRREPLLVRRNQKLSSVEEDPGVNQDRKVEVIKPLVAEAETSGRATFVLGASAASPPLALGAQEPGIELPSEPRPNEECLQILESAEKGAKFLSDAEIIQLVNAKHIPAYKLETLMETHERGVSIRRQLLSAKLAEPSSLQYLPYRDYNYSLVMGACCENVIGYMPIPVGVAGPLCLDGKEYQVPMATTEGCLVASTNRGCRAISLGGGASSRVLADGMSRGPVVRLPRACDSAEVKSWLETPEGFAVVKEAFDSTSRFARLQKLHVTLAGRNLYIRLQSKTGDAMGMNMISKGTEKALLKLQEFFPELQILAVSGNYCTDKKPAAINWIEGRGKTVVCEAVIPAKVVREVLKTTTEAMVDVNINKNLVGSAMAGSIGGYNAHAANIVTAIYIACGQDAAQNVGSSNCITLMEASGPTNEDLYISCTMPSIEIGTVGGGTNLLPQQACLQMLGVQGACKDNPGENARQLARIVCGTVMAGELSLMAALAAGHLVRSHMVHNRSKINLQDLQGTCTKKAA
- protocol description: enzyme activity determination, inhibition of HMG-CoA reductase relative to mevinolin
- Format: biochemical, Male Rico rats (liver)
- assay setup: relative inhibitory potency; IC50 of reference mevinolin set at 1 and compared with simultaneously determined IC50 of test compound; 20 min pre-incubation, 60 min at 37° C.
property measured: in vitro relative activity (Mevinolin = 1)

Observe how each entry below is paired with its result.
COC(=O)C[C@H](O)C[C@H](O)/C=C/c1c(C(C)C)nc2c(ccn2CCC#N)c1-c1ccc(F)cc1 (relative stereo) : 24
COC(=O)C[C@H](O)C[C@H](O)/C=C/c1c(C(C)C)nc2c(ccn2C(C)C)c1-c1ccc(F)cc1 (relative stereo) : 13
COC(=O)C[C@H](O)C[C@H](O)/C=C/c1c(C(C)C)nc2[nH]ccc2c1-c1ccc(F)cc1 (relative stereo) : 3
CC(C)c1nc2c(ccn2C)c(-c2ccc(F)cc2)c1/C=C/[C@@H](O)C[C@@H](O)CC(=O)O (relative stereo) : 3
COC(=O)C[C@H](O)C[C@H](O)/C=C/c1c(C(C)C)nc2c(ccn2CC#N)c1-c1ccc(F)cc1 (relative stereo) : 27

a: C#CCn1ccc2c(-c3ccc(F)cc3)c(/C=C/[C@@H](O)C[C@@H](O)CC(=O)OC)c(C(C)C)nc21 (relative stereo)
b: COC(=O)C[C@H](O)C[C@H](O)/C=C/c1c(C(C)C)nc2c(ccn2C)c1-c1ccc(F)cc1 (relative stereo)
c: CC(C)c1nc2c(ccn2Cc2ccccc2)c(-c2ccc(F)cc2)c1/C=C/[C@@H](O)C[C@@H](O)CC(=O)O (relative stereo)
d: C=CCn1ccc2c(-c3ccc(F)cc3)c(/C=C/[C@@H](O)C[C@@H](O)CC(=O)OC)c(C(C)C)nc21 (relative stereo)
e: COC(=O)C[C@H](O)C[C@H](O)/C=C/c1c(C(C)C)nc2c(ccn2Cc2cccnc2)c1-c1ccc(F)cc1 (relative stereo)
IN: Write the entries in order, lowest recorded in vitro relative activity (Mevinolin = 1) first. Return the labels ranked in the requested order, please.
OUT: c, b, e, a, d
(c: 2, b: 3, e: 9, a: 17, d: 33)

I: COC(=O)C[C@H](O)C[C@H](O)/C=C/c1c(C(C)C)nc2c(ccn2CCc2ccccc2)c1-c1ccc(F)cc1 (relative stereo)
II: CC(C)c1nc2[nH]ccc2c(-c2ccc(F)cc2)c1/C=C/[C@@H](O)C[C@@H](O)CC(=O)O (relative stereo)
IN: Sorting by in vitro relative activity (Mevinolin = 1) in descending order, would I or II appear first? Answer by stating the label of the chosen item.
OUT: I
(I: 17, II: 3)
